Numbers sourced from PubChem BioAssay AID2202555.

system: rat and mouse 2-year carcinogenicity bioassay, tumor evidence; assay: Consolidated carcinogenicity assay summary data; details: Route (rodents): Gavage
Results filed as inconclusive are left out. Calls of active or inactive are those of the source. The rule behind the calls is not given here.
measurementKind: carcinogen call

>>> valuemeasured("O=c1ccc2ccccc2o1")
"active; some evidence"
>>> valuemeasured("O=Cc1ccco1")
"active; some evidence"
>>> valuemeasured("Nc1ccc(Cl)cc1")
"active; clear evidence"
>>> valuemeasured("c1cc(OCC2CO2)cc(OCC2CO2)c1 (centres undefined)")
"active; clear evidence"
>>> valuemeasured("CN(C)c1ccc2nc3ccc(=[N+](C)C)cc-3sc2c1")
"active; some evidence"

// returns reported carcinogen call for input ClC(Cl)Cl
active; clear evidence

// returns reported carcinogen call for input COc1c2occc2cc2ccc(=O)oc12
active; clear evidence

// returns reported carcinogen call for input C=C1C/C(=C/C)C(=O)O[C@@H]2CCN3CC=C(COC(=O)[C@@]1(O)CO)[C@H]23
active; clear evidence

###

test system: rat and mouse 2-year carcinogenicity bioassay, tumor evidence; test: Consolidated carcinogenicity assay summary data; details: Route (rodents): Dosed feed
Results filed as inconclusive are left out. Active and inactive are the calls of the source. No rule for the calls is given here.
measurementKind: carcinogen call

>>> valuemeasured("Cc1cc(N=Nc2c(O)ccc3ccccc23)c(S(=O)(=O)O)cc1Cl")
"active; clear evidence"
>>> valuemeasured("CCCC[C@@H](C)[C@@H](OC(=O)C[C@@H](CC(=O)O)C(=O)O)[C@H](C[C@@H](C)C[C@H](O)CCCC[C@@H](O)C[C@H](O)[C@H](C)N)OC(=O)C[C@@H](CC(=O)O)C(=O)O")
"active; clear evidence"
>>> valuemeasured("Nc1ccc(N=Nc2ccc(-c3ccc(N=Nc4c(S(=O)(=O)O)cc5cc(S(=O)(=O)O)c(N=Nc6ccccc6)c(O)c5c4N)cc3)cc2)c(N)c1")
"active; clear evidence"
>>> valuemeasured("C[C@H]1CCCC(=O)CCC/C=C/c2cc(O)cc(O)c2C(=O)O1")
"active; no evidence"
>>> valuemeasured("N#Cc1c(Cl)c(Cl)c(Cl)c(C#N)c1Cl")
"active; clear evidence"
>>> valuemeasured("COc1ccc(N)cc1N")
"active; clear evidence"
>>> valuemeasured("CN(C)NC(=O)CCC(=O)O")
"active; no evidence"
>>> valuemeasured("O=C1OC(c2ccc(O)cc2)(c2ccc(O)cc2)c2ccccc21")
"active; clear evidence"
>>> valuemeasured("OCC(CO)(CBr)CBr")
"active; clear evidence"
>>> valuemeasured("O=NN(c1ccccc1)c1ccccc1")
"active; clear evidence"

Next, consider the following compound.
// returns reported carcinogen call for input O=C(O)C1C(C(=O)O)C2(Cl)C(Cl)=C(Cl)C1(Cl)C2(Cl)Cl (configuration not stated)
active; clear evidence

###

tested on: rat and mouse 2-year carcinogenicity bioassay, tumor evidence; assay: Consolidated carcinogenicity assay summary data; conditions: Route (rodents): Dosed water
Results filed as inconclusive are left out. Active and inactive are the calls of the source. How the calls were made is not given here.
measurementKind: carcinogen call

Would you please look over these solved cases?
>>> valuemeasured("O=C(O)C(Br)Br")
"active; some evidence"
>>> valuemeasured("[O]=[Cr](=[O])([OH])[O][Cr](=[O])(=[O])[OH]")
"active; clear evidence"
>>> valuemeasured("O=C(O)C(Cl)Br (stereo not drawn)")
"active; clear evidence"
>>> valuemeasured("COc1cc(-c2ccc(N=Nc3c(S(=O)(=O)O)cc4cc(S(=O)(=O)O)cc(N)c4c3O)c(OC)c2)ccc1N=Nc1c(S(=O)(=O)O)cc2cc(S(=O)(=O)O)cc(N)c2c1O")
"active; clear evidence"
>>> valuemeasured("O=C(O)C(Cl)(Cl)Br")
"active; clear evidence"
>>> valuemeasured("Cc1ccc(S(=O)(=O)Oc2ccc(N=Nc3ccc(-c4ccc(N=Nc5c(O)ccc6cc(S(=O)(=O)O)cc(S(=O)(=O)O)c56)c(C)c4)cc3C)cc2)cc1")
"active; clear evidence"

Next, consider the following molecule.
Please state recorded carcinogen call (tested on rat and mouse 2-year carcinogenicity bioassay, tumor evidence) of N#CC(Br)Br
active; clear evidence
